These data points were gathered from patent US20070265189A1.

Known IR/IGF-1R comparison of a selection of binders
# assay_target: T1, soluble human insulin receptor-immunoglobulin heavy chain chimera (sIR-Fc; Bass et al., 1996) (human, UniProt P06213 28-956, limits assumed)
# T1 construct: extracellular domain; also called soluble IR (Bass construct); not shown: immunoglobulin heavy chain constant domains
# assay_details: phage ELISA
property_label: IR/IGF-1R comparison

1) SAAQLFFQESFYDWFLRQVAESSQPN [H2CA-4-F11-IGFR] :: 0.1
2) RFSTDGFYQYLLALVGGGPVG [20E2B-1-A11-IGFR] :: 0.1
3) PGTDLGFYQALRCVVIQGACD [20E2B-2-B2-IGFR] :: 0.1
4) SGAKVIVVTGDSGDPFYHKLSELLQGS [B6Hα-2-C10-IR] :: 0.2
5) YRGMLVLGRSSDGAGKVAFERPARIGQTVFAVNFYDWFV [A6L-0-E6-IR] :: 0.1
6) VNQSGSIHENFYDWFERQVSHQRGVR [H2CA-4-F10-IGFR] :: 0.2
7) LGVTDGFYAALGYLIHGVGQF [20E2B-3-D11-IGFR] :: 0.1
